Tested on: HEK293 (CLS 300192)
Assay: Cytotoxicity assay (Resazurin)
Format: cell-based
Conditions: Homo sapiens, HEK293, 48 h, 2 days
reported.metric: IC50 (µM)
Provide the reading as a plain figure in µM.

>>> numeric_readout("Oc1c(Br)cc(Br)c(Br)c1Oc1ccc(Br)cc1Br")
3.12

Below: the item to evaluate.
The compound listed as Oc1c(Br)cc(Br)cc1Oc1ccc(Br)cc1Br shows IC50 equal to 12.5

* * *

Test system: HepG2 (CLS 300198)
Assay: Cytotoxicity assay (Resazurin)
Format: cell-based
Conditions: Homo sapiens, HepG2, 48 h, 2 days
Experimental: Human cell lines were grown in their respective growth medium. Cells have been counted using a haemocytometer, and cell density was adjusted to 10^6 cells/mL. A 2-fold serial dilution was prepared in 96-well U-bottom plates, and cells were sown into the wells to a final density of 5 × 10^5 cells/well. […] Finally, the fluorescence was quantified in a plate reader with 535-nm excision and 590-nm emission wavelengths.
We begin with a simple list: items and their reported IC50.
Provide the reading as a plain figure in µM.

>>> numeric_readout("Oc1c(Br)cc(Br)c(Br)c1Oc1ccc(Br)cc1Br [3-bromo-PP]")
25

Below: the item to evaluate.
The molecule listed as Oc1c(Br)cc(Br)cc1Oc1ccc(Br)cc1Br [2-bromo-PP] shows IC50 equal to 50
